This collection of values is drawn from patent US11535650.

In this section, each of the binders is paired with its reported Avg. IC50, human hemolysis assay (complete human sera).
Biological target: human C5 protein (human, UniProt P01031 19-673; P01031 678-1676)
Experiment: cell-based or functional assay
Starred links: 1 amine or outer side, 2 acyl side, 3 side chain; linkers in the order of their positions; H or OH if unused. Positions of bridges follow the written chain, without caps; N, C: chain ends. Non-standard residues stand in square brackets, D forms with d. Primed or numbered codes have the meaning given here. No end group written: not given here. Tyr(OMe) = O-methyl tyrosine, COc1ccc(C[C@H](N[*:1])C(=O)[*:2])cc1; mXylyl(5) = bridging moiety between the two residues (meta-xylyl); mXylyl″ = bridging moiety between the two marked residues; mXylyl = bridging moiety between residues (mXylyl(i,j)); Trp(7-aza) = N[C@@H](Cc1c[nH]c2ncccc12)C(=O)O; mXylyl(4) = bridging moiety between residues; PEG2000 = polyethylene glycol, 2000 Da; Phe(4-F) = N[C@@H](Cc1ccc(F)cc1)C(=O)O; oXylylene = c1ccc(C[*:2])c(C[*:1])c1; dPhg = N[C@@H](C(=O)O)c1ccccc1; Phg = N[C@H](C(=O)O)c1ccccc1; Tle = CC(C)(C)[C@H](N)C(=O)O; NMeS = CN[C@@H](CO)C(=O)O; hCys = N[C@@H](CCS)C(=O)O; Nva = CCC[C@H](N)C(=O)O; Sar = CNCC(=O)O
measurement name: Avg. IC50, human hemolysis assay (complete human sera)

binder="Ac-[Nva]CYNN[Tle]ECEYP[Phg][Tle]-NH2 (cysteine pairing not given here) [R3128]" result_value="> 100000 nM"
binder="Ac-Y[Nva]C[Phg]T[Trp(7-aza)]EY[NMeS]HC[Nva]-NH2 (linker 3-11 via mXylyl(4)) [R3113]" result_value="> 5000 nM"
binder="Ac-[Nva]C[Phg]T[Trp(7-aza)]EY[NMeS]HGC[Nva]-NH2 (linker 2-11 via mXylyl(4) (inferred)) [R3101]" result_value="> 100000 nM"
binder="Ac-AC[Phg]T[Trp(7-aza)]EY[NMeS]HC[Nva]-NH2 (linker 2-10 via mXylyl) [R3031]" result_value="1090 nM"
binder="Ac-[Nva][hCys][Phg]T[Trp(7-aza)]EY[NMeS]H[hCys][Nva]-NH2 (linker 2-10 via mXylyl(4)) [R3107]" result_value="> 75000 nM"
binder="Ac-CVEAFCD[Tle]Y[Trp(7-aza)]EYP[Phg][Nva]-NH2 (linker 1-6 via mXylyl″) [R3153]" result_value="175 nM"
binder="Ac-[Nva]C[Phg]TAEY[NMeS]HC[Nva]-NH2 (linker 2-10 via mXylyl) [R3034]" result_value="> 50000 nM"
binder="Ac-[Tle]Y[Trp(7-aza)]EYP[Phg][Nva]-NH2 (SMILES CCC[C@H](NC(=O)[C@@H](NC(=O)[C@@H]1CCCN1C(=O)[C@H](Cc1ccc(O)cc1)NC(=O)[C@H](CCC(=O)O)NC(=O)[C@H](Cc1c[nH]c2ncccc12)NC(=O)[C@H](Cc1ccc(O)cc1)NC(=O)[C@@H](NC(C)=O)C(C)(C)C)c1ccccc1)C(N)=O) [R3028]" result_value="> 10000 nM"
binder="MCVERFC-NH2 (linker 2-7 via mXylyl(5)) [R3047]" result_value="> 100000 nM"
binder="Ac-[Nva]C[Phg][dA][Trp(7-aza)]EY[NMeS]HC[Nva]-NH2 (linker 2-10 via mXylyl″) [R3133]" result_value="> 75000 nM"
binder="Ac-YEN[Tle]Y[Trp(7-aza)]EY[Sar][Nva][NMeS]-NH2 (SMILES CCC[C@H](NC(=O)CN(C)C(=O)[C@H](Cc1ccc(O)cc1)NC(=O)[C@H](CCC(=O)O)NC(=O)[C@H](Cc1c[nH]c2ncccc12)NC(=O)[C@H](Cc1ccc(O)cc1)NC(=O)[C@@H](NC(=O)[C@H](CC(N)=O)NC(=O)[C@H](CCC(=O)O)NC(=O)[C@H](Cc1ccc(O)cc1)NC(C)=O)C(C)(C)C)C(=O)N(C)[C@@H](CO)C(N)=O) [R3006]" result_value="267 nM"
binder="Ac-[Nva]C[Phg]T[Trp(7-aza)]E[Tyr(OMe)][NMeS]HC[Nva]-NH2 (linker 2-10 via mXylyl(5)) [R3074]" result_value="308 nM"
binder="Ac-[Nva]C[Phg]T[dW]EY[NMeS]HC[Nva]-NH2 (linker 2-10 via mXylyl″) [R3132]" result_value="> 100000 nM"
binder="Ac-[Nva]C[Phg]T[Trp(7-aza)]E[Phe(4-F)][NMeS]HC[Nva]-NH2 (linker 2-10 via mXylyl(5)) [R3073]" result_value="403 nM"
binder="Ac-CVERACD[Tle]Y[Trp(7-aza)]EYP[dPhg][Nva]-NH2 (linker 1-6 via mXylyl″) [R3156]" result_value="> 10000 nM"
binder="Ac-[Nva]C[Phg]T[Trp(7-aza)]EY[NMeS]HC[Nva]-NH2 (linker 2-10 via oXylylene) [R3049]" result_value="> 3100 nM"
binder="PEG2000-[Nva][Nva]YEN[Tle]Y[Trp(7-aza)]EYP[Phg][Nva]-NH2 [R3078]" result_value="568 nM"
binder="Ac-[Nva]CYEN[Tle]YCEYP[Phg][Nva]-NH2 (linker 2-8 via mXylyl) [R3017]" result_value="> 100000 nM"
